Overview of reported pEC50 across a group of molecules:
# Experimental System: UniProt P31422
# Protocol Description: mGlu3 GIRK thallium flux assay
# Measurement Setup: read-out: mGlu3 PAM EC50; PAM mode; test compound, then EC20 glutamate […] later in the presence of thallium; mean ± SEM
pEC50: −log10 of the molar value.

Value lookup for pEC50; key = COc1ccc(C(=O)N2CCOCC2)cc1OCCCCOc1ccc(C(=O)CC(C)(C)C)c(O)c1C [compound 101]
6.13

---

# Experimental System: UniProtKB P31424
# Sequence (P31424 21-1203): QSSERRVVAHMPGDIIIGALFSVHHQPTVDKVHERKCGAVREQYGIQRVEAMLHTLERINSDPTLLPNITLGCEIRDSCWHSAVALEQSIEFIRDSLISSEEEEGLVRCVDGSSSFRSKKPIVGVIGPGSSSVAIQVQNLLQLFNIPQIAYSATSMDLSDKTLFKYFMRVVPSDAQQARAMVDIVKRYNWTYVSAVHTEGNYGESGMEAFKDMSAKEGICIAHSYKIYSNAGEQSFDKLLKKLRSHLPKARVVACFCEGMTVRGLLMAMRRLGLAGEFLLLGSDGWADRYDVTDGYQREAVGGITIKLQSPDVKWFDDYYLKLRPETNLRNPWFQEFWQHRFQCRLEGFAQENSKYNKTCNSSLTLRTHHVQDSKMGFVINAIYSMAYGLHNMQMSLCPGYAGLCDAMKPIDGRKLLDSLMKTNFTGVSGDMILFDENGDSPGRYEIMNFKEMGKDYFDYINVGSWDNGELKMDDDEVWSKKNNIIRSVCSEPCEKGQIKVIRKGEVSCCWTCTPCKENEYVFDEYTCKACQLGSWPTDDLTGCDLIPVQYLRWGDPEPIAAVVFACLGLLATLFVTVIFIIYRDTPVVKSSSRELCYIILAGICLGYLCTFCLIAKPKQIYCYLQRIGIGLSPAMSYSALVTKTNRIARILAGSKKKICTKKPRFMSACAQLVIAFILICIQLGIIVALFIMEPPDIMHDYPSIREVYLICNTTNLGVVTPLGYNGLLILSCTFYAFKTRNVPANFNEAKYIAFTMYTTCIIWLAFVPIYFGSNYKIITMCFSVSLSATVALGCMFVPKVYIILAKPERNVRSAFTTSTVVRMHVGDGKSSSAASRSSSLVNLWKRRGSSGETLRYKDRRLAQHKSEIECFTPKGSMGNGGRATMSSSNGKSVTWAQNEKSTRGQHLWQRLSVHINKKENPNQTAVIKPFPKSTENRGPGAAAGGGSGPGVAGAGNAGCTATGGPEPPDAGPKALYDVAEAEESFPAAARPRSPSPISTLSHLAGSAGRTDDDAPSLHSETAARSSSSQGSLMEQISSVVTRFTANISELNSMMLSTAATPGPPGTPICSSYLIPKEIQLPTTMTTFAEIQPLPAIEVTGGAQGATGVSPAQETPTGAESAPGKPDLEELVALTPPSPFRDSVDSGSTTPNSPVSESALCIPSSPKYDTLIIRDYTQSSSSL
# Protocol Description: mGlu5 calcium assay
# Format: cell-based
# Measurement Setup: full agonist concentration-response ± 10 μM compound
Outcome Measure: General activity at mGlu5

// below: answered compounds
INSERT INTO results (smiles_entry, measurement) VALUES
  ('Cc1c(OCCCCOc2ccc(C(=O)O)c(Cl)c2)ccc(C(=O)CC2CCCC2)c1O', 'inactive^b'),
  ('COc1cc(C(=O)O)ccc1OCCCCOc1ccc(C(=O)CC(C)(C)C)c(O)c1C', 'inactive^b'),
  ('COc1ccc(C(=O)O)cc1OCCCCOc1ccc(C(=O)CC(C)(C)C)c(O)c1C', 'inactive^b'),
  ('COc1cc(C(=O)O)ccc1OCCCCOc1ccc(C(=O)CC(C)C)c(O)c1C', 'inactive^b'),
  ('Cc1c(OCCCCOc2ccc(C(=O)O)cc2)ccc(C(=O)CC(C)C)c1O', 'inactive^b'),
  ('CCCC(=O)c1ccc(OCCCCOc2ccc(C(=O)O)cc2OC)c(C)c1O', 'inactive^b');

# input for lookup
Value lookup for General activity at mGlu5; key = Cc1c(OCCCCOc2cccc(C(=O)O)c2)ccc(C(=O)CC2CCCC2)c1O
inactive^b

---

Overview of reported Emax across a group of compounds:
# Experimental System: mGlu2 (Rattus norvegicus (Rat))
# Sequence (P31421 19-872): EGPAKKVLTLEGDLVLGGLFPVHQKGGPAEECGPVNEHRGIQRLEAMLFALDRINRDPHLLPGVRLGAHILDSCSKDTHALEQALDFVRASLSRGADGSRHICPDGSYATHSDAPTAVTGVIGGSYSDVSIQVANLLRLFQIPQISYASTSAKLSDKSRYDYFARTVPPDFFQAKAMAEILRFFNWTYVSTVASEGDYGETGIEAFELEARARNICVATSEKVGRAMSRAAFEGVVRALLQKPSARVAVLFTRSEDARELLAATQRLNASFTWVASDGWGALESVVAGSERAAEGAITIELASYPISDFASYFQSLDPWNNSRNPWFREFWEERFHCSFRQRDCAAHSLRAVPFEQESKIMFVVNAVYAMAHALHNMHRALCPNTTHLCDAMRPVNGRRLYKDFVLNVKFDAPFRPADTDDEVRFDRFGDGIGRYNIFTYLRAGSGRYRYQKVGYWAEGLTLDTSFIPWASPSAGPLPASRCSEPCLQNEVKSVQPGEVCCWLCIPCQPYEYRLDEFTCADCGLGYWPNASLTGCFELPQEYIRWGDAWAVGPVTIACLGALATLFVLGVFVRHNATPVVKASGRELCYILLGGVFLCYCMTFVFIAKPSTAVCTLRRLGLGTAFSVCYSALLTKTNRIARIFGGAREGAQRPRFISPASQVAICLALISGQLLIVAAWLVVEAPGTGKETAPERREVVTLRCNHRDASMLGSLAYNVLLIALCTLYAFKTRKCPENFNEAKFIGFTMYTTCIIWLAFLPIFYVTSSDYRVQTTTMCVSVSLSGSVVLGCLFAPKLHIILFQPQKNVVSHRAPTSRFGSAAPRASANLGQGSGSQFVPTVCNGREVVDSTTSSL
# Protocol Description: mGlu2 GIRK thallium flux assay
# Measurement Setup: read-out: mGlu2 PAM Max
Write the value in % as a bare number.

// below: answered compounds
INSERT INTO measurements (compound, measurement) VALUES
  ('Cc1c(OCCCCOCc2cccc(-c3cccc(C(=O)O)c3)c2)ccc(C(=O)CC(C)(C)C)c1O [Compound 187]', 93.4),
  ('COc1ccc(C(=O)NS(C)(=O)=O)cc1OCCCCOc1ccc(C(=O)CC(C)(C)C)c(O)c1C [compound 93]', 98.1),
  ('Cc1c(OCc2cccc(-c3occc3C(=O)O)c2)ccc(C(=O)CC(C)(C)C)c1O [Compound 178]', 81.4);

Value lookup for Emax; key = Cc1c(OCc2cccc(-c3cccc(C(=O)O)c3)c2)ccc(C(=O)CC(C)C)c1O [compound 137]
85.8

What do we get for Cc1c(OCc2ccnc(-c3cccc(C(=O)O)c3)c2)ccc(C(=O)CC(C)(C)C)c1O [compound 149] ?
108

What do we get for Cc1c(OCc2cccc(-c3cccc(C(=O)O)c3)n2)ccc(C(=O)CC(C)(C)C)c1O [compound 159] ?
104

What do we get for Cc1cc(-c2cccc(COc3ccc(C(=O)CC(C)(C)C)c(O)c3C)c2)ccc1C(=O)O [compound 143] ?
87

What do we get for COc1ccc(B2OC(C)(C)C(C)(C)O2)cc1OCCCCOc1ccc(C(=O)CC(C)(C)C)c(O)c1C [compound 87] ?
49.5

What do we get for Cc1c(OCc2cccc(-c3cc(F)cc(C(=O)O)c3)c2)ccc(C(=O)CC(C)(C)C)c1O [compound 136] ?
93.3

What do we get for COc1ccc(C(=O)NC2CC2)cc1OCCCCOc1ccc(C(=O)CC(C)(C)C)c(O)c1C [compound 109] ?
102

What do we get for Cc1c(OCc2cccc(-c3cccc(S(=O)(=O)O)c3)c2)ccc(C(=O)CC(C)(C)C)c1O [compound 164] ?
101

---

# Experimental System: UniProt:P31422
# Protocol Description: mGlu3 GIRK thallium flux assay
# Measurement Setup: read-out: mGlu3 PAM EC50; PAM mode; test compound, then EC20 glutamate […] later in the presence of thallium; mean ± SEM
Lab note: cut-off is 1000 nM. Strictly less in EC50 is 1 (yes). Exactly 1000 nM or more is 0 (no).

INSERT INTO measurements (smiles_entry, classification) VALUES
  ('Cc1c(OCc2nnc(-c3cccc(C(=O)O)c3)s2)ccc(C(=O)CC(C)(C)C)c1O', '0 (no)'),
  ('CC(=O)c1ccc(OCc2cccc(-c3cccc(C(=O)O)c3)c2)c(C)c1O', '0 (no)'),
  ('Cc1c(OCc2cccc(-c3ccc(O)c(C(=O)O)c3)c2)ccc(C(=O)CC(C)(C)C)c1O', '1 (yes)'),
  ('Cc1c(OCc2cccc(-c3cccc(CC(=O)O)c3)c2)ccc(C(=O)CC(C)(C)C)c1O', '0 (no)'),
  ('Cc1cc(-c2cccc(COc3ccc(C(=O)CC(C)(C)C)c(O)c3C)c2)ccc1C(=O)O', '0 (no)'),
  ('Cc1c(OCCCCOc2ccc(C(=O)O)c(Cl)c2)ccc(C(=O)CC(C)C)c1C', '0 (no)');

Field: below-cutoff. Rule: recorded EC50 strictly less than 1000 nM. Subject: Cc1c(OCc2cccc(COc3ccc(C#N)cc3)c2)ccc(C(=O)CC2CCCC2)c1C
0 (no)

What do we get for Cc1c(OCc2cccc(-c3ccc(F)c(C(=O)O)c3)c2)ccc(C(=O)CC(C)(C)C)c1O ?
1 (yes)

---

Overview of reported Vd across a group of compounds:
# Protocol Description: In vivo PK in rats, i.v. administration
# Set-up: species or system rat
# Measurement Setup: rat, plasma, iv, 2 mg/kg, read-out: Vdss
Write the value in L/kg as a bare number.

// below: answered compounds
INSERT INTO measurements (smiles_entry, outcome_measure, unit_annotation, measurement) VALUES
  ('Cc1c(OCCCCOc2ccc(C(=O)O)cc2)ccc(C(=O)CC(C)C)c1O', 'Vd', 'L/kg', 0.81),
  ('COc1ccc(C(=O)O)cc1OCCCCOc1ccc(C(=O)CC(C)C)c(O)c1C', 'Vd', 'L/kg', 2.87),
  ('COc1cc(C(=O)O)ccc1OCCCCOc1ccc(C(=O)CC(C)C)c(O)c1C', 'Vd', 'L/kg', 0.55);

# input for lookup
Value lookup for Vd; key = Cc1c(OCCCCOc2ccc(F)c(C(=O)O)c2)ccc(C(=O)CC(C)C)c1O
0.89

---

Overview of reported pEC50 across a group of compounds:
# Experimental System: UniProt:P31422
# Protocol Description: mGlu3 GIRK thallium flux assay
# Measurement Setup: read-out: mGlu3 PAM EC50; PAM mode; test compound, then EC20 glutamate […] later in the presence of thallium; mean ± SEM
pEC50: −log10 of the molar value.

// below: answered compounds
INSERT INTO measurements (smiles_entry, measurement) VALUES
  ('Cc1c(OCc2cccc(-c3ccc(C(=O)O)c(Cl)c3)c2)ccc(C(=O)CC(C)(C)C)c1O', 6.18),
  ('Cc1c(OCCCCOc2ccccn2)ccc(C(=O)CC2CCCC2)c1C', '< 4.52'),
  ('COC(=O)CCc1cc(OCCCCOc2ccc(C(=O)CC3CCCC3)c(O)c2C)ccc1O', '< 4.52');

Value lookup for pEC50; key = Cc1c(OCc2cc(-c3cccc(C(=O)O)c3)ccn2)ccc(C(=O)CC(C)(C)C)c1O
6.80

What do we get for COc1ccc(B(O)O)cc1OCCCCOc1ccc(C(=O)CC(C)(C)C)c(O)c1C ?
< 4.52

What do we get for Cc1c(OCc2cncc(-c3cccc(C(=O)O)c3)c2)ccc(C(=O)CC(C)(C)C)c1O ?
6.46

What do we get for CCC(=O)c1ccc(OCCCCOc2ccc(C(=O)O)cc2C)c(C)c1O ?
< 4.52

---

# Experimental System: mGlu3 (Rattus norvegicus (Rat), UniProt P31422)
# Sequence (P31422 23-879): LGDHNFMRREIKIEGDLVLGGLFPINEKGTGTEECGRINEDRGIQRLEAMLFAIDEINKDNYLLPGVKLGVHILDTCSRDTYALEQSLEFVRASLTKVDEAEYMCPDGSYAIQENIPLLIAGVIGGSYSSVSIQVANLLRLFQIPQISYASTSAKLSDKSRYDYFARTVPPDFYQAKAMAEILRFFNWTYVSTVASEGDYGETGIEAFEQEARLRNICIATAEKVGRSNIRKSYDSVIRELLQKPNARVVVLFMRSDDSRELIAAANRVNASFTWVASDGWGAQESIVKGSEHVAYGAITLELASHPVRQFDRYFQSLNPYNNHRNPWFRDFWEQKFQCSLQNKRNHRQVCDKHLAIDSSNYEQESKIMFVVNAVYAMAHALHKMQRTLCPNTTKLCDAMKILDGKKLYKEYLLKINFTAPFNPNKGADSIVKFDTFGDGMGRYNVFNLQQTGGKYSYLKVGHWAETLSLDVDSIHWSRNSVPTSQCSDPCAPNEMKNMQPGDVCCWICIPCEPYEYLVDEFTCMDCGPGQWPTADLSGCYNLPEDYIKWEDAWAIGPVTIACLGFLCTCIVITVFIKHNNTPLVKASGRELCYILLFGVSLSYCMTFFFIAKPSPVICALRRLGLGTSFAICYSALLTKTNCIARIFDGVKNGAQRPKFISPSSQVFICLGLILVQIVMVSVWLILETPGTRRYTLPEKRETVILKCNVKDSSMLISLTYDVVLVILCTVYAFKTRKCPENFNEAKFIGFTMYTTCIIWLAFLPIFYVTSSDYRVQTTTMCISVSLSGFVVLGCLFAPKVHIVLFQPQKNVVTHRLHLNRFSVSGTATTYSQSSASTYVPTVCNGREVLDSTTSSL
# Protocol Description: mGlu3 GIRK thallium flux assay;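 also: kinetic fluorescence slope read shortly after thallium plus agonist addition, scaled between vehicle and maximal agonist control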
# Measurement Setup: full agonist concentration-response ± 10 μM compound
Outcome Measure: General activity at mGlu3

// below: answered molecules
INSERT INTO assay_data (smiles_entry, outcome_measure, measurement) VALUES
  ('COc1cc(C(=O)O)ccc1OCCCCOc1ccc(C(=O)CC(C)(C)C)c(O)c1C', 'General activity at mGlu3', 'Ago-PAM'),
  ('Cc1c(OCCCCOc2ccc(C(=O)O)cc2)ccc(C(=O)CC(C)C)c1O', 'General activity at mGlu3', 'PAM'),
  ('COc1ccc(C(=O)O)cc1OCCCCOc1ccc(C(=O)CC(C)(C)C)c(O)c1C', 'General activity at mGlu3', 'Ago-PAM'),
  ('COc1cc(C(=O)O)ccc1OCCCCOc1ccc(C(=O)CC(C)C)c(O)c1C', 'General activity at mGlu3', 'PAM');

# input for lookup
Report General activity at mGlu3 for Cc1c(OCCCCOc2cccc(C(=O)O)c2)ccc(C(=O)CC2CCCC2)c1O tested on mGlu3 (Rattus norvegicus (Rat), UniProt P31422).
PAM

Each recorded value in this set is attributed to patent US10099993B2.
